Listing of recorded Post-emergence action against BRSNW (crop plant compatibility) by entry.
Tested on: Brassica napus (BRSNW)
assaySummary: Post-emergence crop plant compatibility, greenhouse pot test
Type: in vivo
appliedConditions: 1.25 g/ha, vs untreated controls
Give your result in % as a bare value.

Please review the following examples before continuing.
# molecule, measuredNumber
data = [
    ("Cn1c(C(F)(F)F)cc(=O)n(-c2cc(Sc3ccccc3OCC(=O)OCC3CCCO3)c(Cl)cc2F)c1=O (racemic) [I.1-71]", 20),
    ("CC(Oc1ccccc1Sc1cc(-n2c(=O)cc(C(F)(F)F)n(C)c2=O)c(F)cc1Cl)C(=O)OCC1CCOC1 (mixture of isomers) [I.2-72]", 10),
    ("COCCOC(=O)COc1ccccc1Oc1cc(-n2c(=O)cc(C(F)(F)F)n(C)c2=O)c(F)cc1Cl [I.7-1]", 20),
]

Entry COCCOCCOC(=O)COc1ccccc1Oc1cc(-n2c(=O)cc(C(F)(F)F)n(C)c2=O)c(F)cc1Cl [I.7-23] has what Post-emergence action against BRSNW (crop plant compatibility)?
20

Quick one: Post-emergence action against BRSNW (crop plant compatibility) for COCCOCCOC(=O)C(C)Oc1ccccc1Sc1cc(-n2c(=O)cc(C(F)(F)F)n(C)c2=O)c(F)cc1Cl (racemic) [I.2-23] ?
20

* * *

Post-emergence action against ORYSA in % overview
Tested on: Oryza sativa (ORYSA)
assaySummary: Post-emergence crop plant compatibility, greenhouse pot test (also comparative test C)
Format: in vivo
appliedConditions: 20 g/ha, crop plant compatibility
Procedure: Seeds of monocotyledonous and dicotyledonous weeds and crop plants were placed in sandy loam in plastic or wood-fiber pots, covered with soil and cultivated in a greenhouse under controlled growth conditions. 2 to 3 weeks after sowing, the test plants were treated at the one-leaf stage. […]
Give your result in % as a bare value.

Examples with their reported Post-emergence action against ORYSA in % follow.
# compound, Post-emergence action against ORYSA in % [%]
records = [
    ("CCOCCOC(=O)COc1ccccc1Oc1cc(-n2c(=O)cc(C(F)(F)F)n(C)c2=O)c(F)cc1[N+](=O)[O-] [I.6-2]", 20),
    ("Cn1c(C(F)(F)F)cc(=O)n(-c2cc(Oc3cc(F)ccc3OCC(=O)OCc3ccccn3)c(Cl)cc2F)c1=O [I.23-276]", 10),
    ("Cn1c(C(F)(F)F)cc(=O)n(-c2cc(Oc3ccccc3OCC(=O)OCc3cccnn3)c(C#N)cc2F)c1=O [I.9-291]", 20),
    ("Cn1c(C(F)(F)F)cc(=O)n(-c2cc(Oc3ccccc3OCC(=O)OCc3ccccn3)c(C#N)cc2F)c1=O [I.9-276]", 0),
    ("COCCOCCOC(=O)COc1ccccc1Oc1cc(-n2c(=O)cc(C(F)(F)F)n(C)c2=O)c(F)cc1C#N [I.9-23]", 20),
]

Looking for the measured Post-emergence action against ORYSA in % of Cn1c(C(F)(F)F)cc(=O)n(-c2cc(Oc3ccccc3OCC(=O)OCc3cccnc3)c(Cl)cc2F)c1=O [I.7-277] , can you help?
20

What Post-emergence action against ORYSA in % value was documented for this compound, Cn1c(C(F)(F)F)cc(=O)n(-c2cc(Oc3ccccc3OCC(=O)OCc3ccccn3)c([N+](=O)[O-])cc2F)c1=O [I.6-276] ?
20

Could you tell me which Post-emergence action against ORYSA in % is on file for CCOCCOC(=O)C(C)Oc1ccccc1Sc1cc(-n2c(=O)cc(C(F)(F)F)n(C)c2=O)c(F)cc1Cl (racemic) [I.2-2] ?
20

# input compound: Cn1c(C(F)(F)F)cc(=O)n(-c2cc(Oc3ccccc3OCC(=O)OCCOC(F)(F)F)c([N+](=O)[O-])cc2F)c1=O [I.6-41] ; wanted: its Post-emergence action against ORYSA in %
20

Would you mind telling me what Post-emergence action against ORYSA in % value was observed for COCCOCCOC(=O)COc1ccccc1Oc1cc(-n2c(=O)cc(C(F)(F)F)n(C)c2=O)c(F)cc1Br [I.8-23] ?
20

Suppose we examine the compound CC(Oc1ccccc1Sc1cc(-n2c(=O)cc(C(F)(F)F)n(C)c2=O)c(F)cc1Cl)C(=O)OCCO (racemic) [I.2-58] ; what Post-emergence action against ORYSA in % value has been reported?
20

What value of Post-emergence action against ORYSA in % has been reported for the following compound? COCCOCCOC(=O)COc1ccccc1Oc1cc(-n2c(=O)cc(C(F)(F)F)n(C)c2=O)c(F)cc1[N+](=O)[O-] [I.6-23]
20

I am curious: what Post-emergence action against ORYSA in % value has been reported for COCCOC(=O)COc1ccccc1Oc1cc(-n2c(=O)cc(C(F)(F)F)n(C)c2=O)c(F)cc1[N+](=O)[O-] [I.6-1] ?
20

For the compound shown here, Cn1c(C(F)(F)F)cc(=O)n(-c2cc(Oc3ccccc3OCC(=O)OCC[N+](=O)[O-])c(Br)cc2F)c1=O [I.8-183] , give the reported Post-emergence action against ORYSA in %.
0

Quick one: Post-emergence action against ORYSA in % of Cn1c(C(F)(F)F)cc(=O)n(-c2cc(Oc3ccccc3OCC(=O)OCC[N+](=O)[O-])c([N+](=O)[O-])cc2F)c1=O [I.6-183] ?
0

* * *

Test system: Oryza sativa (ORYSA)
assaySummary: Post-emergence crop plant compatibility, greenhouse pot test (also comparative test C)
Type: in vivo
appliedConditions: 1.25 g/ha, vs untreated controls
reportedProperty: Post-emergence action against ORYSA (crop plant compatibility) (%)
The reply should contain only the number, in %.

# compound, targetUnderTest, measuredNumber
data = [
    ("Cn1c(C(F)(F)F)cc(=O)n(-c2cc(Oc3ccccc3OCC(=O)OCCC[N+](=O)[O-])c(Cl)cc2F)c1=O", "Oryza sativa (ORYSA)", 0),
    ("Cn1c(C(F)(F)F)cc(=O)n(-c2cc(Oc3ccccc3OCC(=O)OCc3ccccn3)c(Br)cc2F)c1=O", "Oryza sativa (ORYSA)", 20),
    ("COCCOC(=O)COc1ccc(F)cc1Oc1cc(-n2c(=O)cc(C(F)(F)F)n(C)c2=O)c(F)cc1Cl", "Oryza sativa (ORYSA)", 0),
    ("Cn1c(C(F)(F)F)cc(=O)n(-c2cc(Oc3ccccc3OCC(=O)OCCOC(F)(F)F)c([N+](=O)[O-])cc2F)c1=O", "Oryza sativa (ORYSA)", 10),
    ("Cn1c(C(F)(F)F)cc(=O)n(-c2cc(Oc3ccccc3OCC(=O)OCCOC(F)(F)F)c(C#N)cc2F)c1=O", "Oryza sativa (ORYSA)", 0),
]

For the compound shown here, COCCCOC(=O)COc1ccccc1Sc1cc(-n2c(=O)cc(C(F)(F)F)n(C)c2=O)c(F)cc1Cl , give the reported Post-emergence action against ORYSA (crop plant compatibility).
10

I am curious: what Post-emergence action against ORYSA (crop plant compatibility) value has been reported for CC(C#N)OC(=O)COc1ccccc1Oc1cc(-n2c(=O)cc(C(F)(F)F)n(C)c2=O)c(F)cc1Cl (centres unmarked) ?
0

Reported Post-emergence action against ORYSA (crop plant compatibility), compound Cn1c(C(F)(F)F)cc(=O)n(-c2cc(Oc3ccccc3OCC(=O)OCCC#N)c(Cl)cc2F)c1=O : ____
0

Report Post-emergence action against ORYSA (crop plant compatibility) for Cn1c(C(F)(F)F)cc(=O)n(-c2cc(Oc3ccccc3OCC(=O)OCC[N+](=O)[O-])c(Br)cc2F)c1=O please.
0

* * *

System: Oryza sativa (ORYSA)
assaySummary: Post-emergence crop plant compatibility, greenhouse pot test (also comparative test C)
Format: in vivo
appliedConditions: 5 g/ha, vs untreated controls
The entries below are paired with their reported Post-emergence action against ORYSA (crop plant compatibility).

What measured Post-emergence action against ORYSA (crop plant compatibility) is associated with COCCOCCOC(=O)COc1ccccc1Oc1cc(-n2c(=O)cc(C(F)(F)F)n(C)c2=O)c(F)cc1Cl on Oryza sativa (ORYSA)?
20%

Any idea what Post-emergence action against ORYSA (crop plant compatibility) came out for Cn1c(C(F)(F)F)cc(=O)n(-c2cc(Oc3ccccc3OCC(=O)OCCOC(F)(F)F)c(Br)cc2F)c1=O on Oryza sativa (ORYSA)?
20%

Return Post-emergence action against ORYSA (crop plant compatibility) measured with Oryza sativa (ORYSA) given this compound: COCCOCCOC(=O)COc1ccccc1Oc1cc(-n2c(=O)cc(C(F)(F)F)n(C)c2=O)c(F)cc1C#N
0%

For the record Cn1c(C(F)(F)F)cc(=O)n(-c2cc(Oc3ccccc3OCC(=O)OCC[N+](=O)[O-])c([N+](=O)[O-])cc2F)c1=O , what value of Post-emergence action against ORYSA (crop plant compatibility) is listed for Oryza sativa (ORYSA)?
0%

Give Oryza sativa (ORYSA) Post-emergence action against ORYSA (crop plant compatibility) for COCCOCCOC(=O)COc1ccccc1Oc1cc(-n2c(=O)cc(C(F)(F)F)n(C)c2=O)c(F)cc1Br
0%

Provide value of Post-emergence action against ORYSA (crop plant compatibility) for this record tested with Oryza sativa (ORYSA): Cn1c(C(F)(F)F)cc(=O)n(-c2cc(Oc3ccccc3OCC(=O)OCc3ccccn3)c(C#N)cc2F)c1=O
0%

Param readout = Post-emergence action against ORYSA (crop plant compatibility); param system = Oryza sativa (ORYSA); param query = CCOCCOC(=O)C(C)Oc1ccccc1Sc1cc(-n2c(=O)cc(C(F)(F)F)n(C)c2=O)c(F)cc1Cl (racemic) ; response: value
10%

Notebook: pull reported Post-emergence action against ORYSA (crop plant compatibility) for Oryza sativa (ORYSA), entry Cn1c(C(F)(F)F)cc(=O)n(-c2cc(Oc3ccccc3OCC(=O)OCC#N)c(C#N)cc2F)c1=O
20%

Any idea what Post-emergence action against ORYSA (crop plant compatibility) came out for Cn1c(C(F)(F)F)cc(=O)n(-c2cc(Oc3ccccc3OCC(=O)OCc3cccnn3)c(Br)cc2F)c1=O on Oryza sativa (ORYSA)?
20%

Find the measured Post-emergence action against ORYSA (crop plant compatibility): item COCC(C)OC(=O)COc1ccccc1Oc1cc(-n2c(=O)cc(C(F)(F)F)n(C)c2=O)c(F)cc1Cl (centres unmarked) , target or system Oryza sativa (ORYSA).
20%

// lookup Post-emergence action against ORYSA (crop plant compatibility) | system=Oryza sativa (ORYSA) | key= Cn1c(C(F)(F)F)cc(=O)n(-c2cc(Oc3ccccc3OCC(=O)OCCC[N+](=O)[O-])c(Cl)cc2F)c1=O
10%

Notebook: pull reported Post-emergence action against ORYSA (crop plant compatibility) for Oryza sativa (ORYSA), entry COCCOC(=O)COc1ccccc1Oc1cc(-n2c(=O)cc(C(F)(F)F)n(C)c2=O)c(F)cc1Br
20%

Write down the reported Post-emergence action against ORYSA (crop plant compatibility) of Cn1c(C(F)(F)F)cc(=O)n(-c2cc(Oc3ccccc3OCC(=O)OCC#N)c([N+](=O)[O-])cc2F)c1=O , test system: Oryza sativa (ORYSA).
20%

Provide the documented Post-emergence action against ORYSA (crop plant compatibility) with Oryza sativa (ORYSA) as the system for COCCOC(=O)COc1ccccc1Oc1cc(-n2c(=O)cc(C(F)(F)F)n(C)c2=O)c(F)cc1[N+](=O)[O-]
10%
